# Test system: SN12C
# method_summary: NCI tumour cell line growth inhibition, 48 h
Active and inactive are the calls of the source. Cut-off read from the data, not from the text of the source: active = GI50 up to about 1.1 µM and inactive = higher.
property_name: GI50

{"columns": ["compound", "property_name", "experimental_result"],
 "data": [
  ["O=C1/C(=C/c2ccccc2)CCc2ccccc21", "GI50", "21.9 µM (inactive)"],
  ["COC1=CC(=C(C#N)/C(=N\\c2ccccc2)SC)C=C(OC)C1=O", "GI50", "> 100 µM (inactive)"],
  ["Nc1nc(=O)n(C2OC(CO)C(O)C2O)c2ncc(-c3ccc(-c4ccccc4)cc3)nc12 (stereo unspecified)", "GI50", "> 100 µM (inactive)"],
  ["CC(C)=C1C2CC3(C)CCC2(C)CCC13.CC1=CCC2C3(C)CCC2(C(C)C)C1C3 (stereo unspecified)", "GI50", "18.2 µM (inactive)"],
  ["CCN(CC)c1cc2c3c(c1)CCCN3CCC2", "GI50", "> 10 µM (inactive)"],
  ["Nc1n[nH]c(CCCCCCCc2nnc(N)[nH]2)n1", "GI50", "> 100 µM (inactive)"],
  ["CSCC(CO)NC(=O)/C=C/c1c(C)[nH]c(=O)[nH]c1=O (stereo unspecified)", "GI50", "367 µM (inactive)"],
  ["O=[N+]([O-])c1cccc2nc3ccccc3c(NCCCN3CCOCC3)c12", "GI50", "< 0.0132 µM (active)"],
  ["CCOC(=O)c1c(N2CCOCC2)[nH]c(=O)c(C(c2ccc(N(C)C)cc2)c2c(O)c(C(=O)OCC)c(N3CCOCC3)[nH]c2=O)c1O", "GI50", "> 100 µM (inactive)"],
  ["CCOCCOc1ccc(OCCOCC)cc1", "GI50", "16.8 µM (inactive)"],
  ["CC1OC(O)CC(OC(=O)c2ccccc2)C1OC(=O)c1ccccc1 (stereo unspecified)", "GI50", "17.3 µM (inactive)"]
]}

* * *

# Tested on: OVCAR-8
# method_summary: NCI tumour cell line growth inhibition, 48 h
Calls of active or inactive are those of the source. Rule as the data show it: active = GI50 up to about 1.1 µM and inactive = higher.

{"columns": ["molecule", "GI50"],
 "data": [
  ["COC(=O)CCC(=O)N1CC1C (centres undefined)", "> 100 µM (inactive)"],
  ["COC(=O)[C@H](Cc1c[nH]c2ccccc12)NP(=O)(O)OCC1C=CC(n2cc(C)c(=O)[nH]c2=O)O1 (some centres undefined)", "> 100 µM (inactive)"],
  ["CC[C@H](C)[C@H](NC(=O)[C@H](Cc1ccc(O)cc1)NCC(F)(F)F)C(=O)OC(C)(C)C", "12.4 µM (inactive)"],
  ["COc1cc2nc(-c3ccccc3)cc(O)c2c(OC)c1OC", "> 100 µM (inactive)"]
]}

* * *

Overview of reported GI50 across a group of molecules:
# Test system: COLO 205
# method_summary: NCI tumour cell line growth inhibition, 48 h
The source made the active and inactive calls. Cut-off read from the data, not from the text of the source: active = GI50 up to about 1.1 µM and inactive = higher.

{"columns": ["molecule", "tested_on", "GI50"],
 "data": [
  ["Cc1cc(O)nc(CNC(=O)c2cccc3ccccc23)n1", "COLO 205", "> 100 µM (inactive)"],
  ["CC1=C(C(=O)NCc2ccccc2)C(c2ccccc2C)C(C(=O)NCc2ccccc2)=C(C)N1", "COLO 205", "38.8 µM (inactive)"],
  ["CC1=NN(C(=O)CC(=O)Nc2cccc(C)c2)C(=O)C1/N=N\\c1ccc(S(=O)(=O)c2ccc(/N=N/C3C(=O)N(C(=O)CC(=O)Nc4cccc(C)c4)N=C3C)cc2)cc1 (stereo unspecified)", "COLO 205", "> 100 µM (inactive)"],
  ["O=C(CNc1ccccc1[N+](=O)[O-])Nn1c(-c2ccccc2)nc2ccccc2c1=O", "COLO 205", "20.6 µM (inactive)"],
  ["O=C1C[C@@H]2CCCC[C@@H]2C12SCCS2", "COLO 205", "> 100 µM (inactive)"],
  ["CCOC(=O)c1c(N2CCOCC2)[nH]c(=O)c(C(c2ccc(N(C)C)cc2)c2c(O)c(C(=O)OCC)c(N3CCOCC3)[nH]c2=O)c1O", "COLO 205", "> 100 µM (inactive)"],
  ["CC(C)C1=C(Cc2ccccc2)C(=O)O/C1=C\\c1ccc(O)c(Cl)c1", "COLO 205", "20.4 µM (inactive)"],
  ["Oc1ccc2c(c1)CCc1c-2n(CCN2CCOCC2)c2ccc(O)cc12", "COLO 205", "56.2 µM (inactive)"],
  ["O=C(N/N=C\\c1cccc2ccccc12)Nc1ccc([N+](=O)[O-])cc1", "COLO 205", "17.1 µM (inactive)"],
  ["C[Si](C)(C)OC1(C#N)c2ccccc2CCCC12CCCC2 (stereo unspecified)", "COLO 205", "37.1 µM (inactive)"],
  ["CN(c1ccccc1)c1cc2ccccc2nn1", "COLO 205", "> 100 µM (inactive)"],
  ["COc1ccc(/C=C2/C[N+](C)(C)C/C(=C/c3ccc(OC)cc3)C2=O)cc1", "COLO 205", "16.9 µM (inactive)"],
  ["CNS(=O)(=O)c1ccccc1C(=N)c1ccccc1", "COLO 205", "> 100 µM (inactive)"],
  ["O=C1CCN(CCC(F)(F)C(F)(F)C(F)(F)C(F)(F)F)C(=S)N1", "COLO 205", "> 100 µM (inactive)"],
  ["CC(=O)Nc1cc(C(=O)Nc2cc(C(=O)Nc3cc(C(=O)Nc4cc(C(=O)Nc5cc(C(=O)NCCC(=O)NCCCN(C)C)n(C)c5)n(C)c4)n(C)c3)n(C)c2)n(C)c1", "COLO 205", "46.8 µM (inactive)"],
  ["O=C1Nc2ccccc2/C1=C\\c1c(-c2ccccc2)nc2n1CCS2", "COLO 205", "29 µM (inactive)"],
  ["NCCNCCCNC(=O)c1cc(-c2ccccc2)nc2ccccc12", "COLO 205", "16.2 µM (inactive)"],
  ["CC(=O)Oc1ccn2nc(C)c(Br)c2c1Br", "COLO 205", "19.4 µM (inactive)"],
  ["O=c1[nH]nc2ccccc2c1Cl", "COLO 205", "11.4 µM (inactive)"],
  ["CCN(CC)CCNC(=O)c1cccc2nc3ccccc3nc12", "COLO 205", "3.78 µM (inactive)"],
  ["CC(C)=CC(=O)Cc1nc2cc(C)c(C)cc2[nH]c1=O", "COLO 205", "> 100 µM (inactive)"]
]}

* * *

The next entries give measured GI50 for HCT-15.

{"columns": ["compound", "GI50"],
 "data": [
  ["COC(=O)[C@H](Cc1c[nH]c2ccccc12)NP(=O)(O)OCC1C=CC(n2cc(C)c(=O)[nH]c2=O)O1 (stereo not given in full)", "> 100 µM"],
  ["CCCC(=O)OCOC(=O)N(C)/N=N/c1ccc(C(=O)OCC)cc1", "19.9 µM"],
  ["CS/C(C)=N/OC(=O)NCCCCNc1ccc(N=[N+]=[N-])cc1", "36.9 µM"],
  ["O=c1[nH]c(-c2ccccc2)nc2cc([N+](=O)[O-])c(/C(Cl)=C/c3ccccc3)cc12", "7.82 µM"],
  ["COc1ccc2oc(=N)c(C(N)=S)cc2c1", "17.5 µM"],
  ["CN(C)C(=O)C1CCC(=C2C(=O)OC(C)(C)OC2=O)N1C (stereo not given)", "> 100 µM"],
  ["O=[N+]([O-])c1ccc(C2=Nc3ccccc3SC(c3ccccc3)C2)cc1 (stereo not given)", "16.3 µM"],
  ["CN1N=C(c2ccccc2)C(C(c2ccccc2[N+](=O)[O-])C2C(=O)N(C)N=C2c2ccccc2)C1=O (stereo not given)", "42.6 µM"],
  ["C=CCCCN1CCCC(C)C1=S (stereo not given)", "> 100 µM"],
  ["OC[C@H]1N[C@H](CO)[C@@H](O)[C@H]1O", "> 100 µM"],
  ["COC1=CC(=C(C#N)/C(=N\\c2ccccc2)SC)C=C(OC)C1=O", "80.7 µM"],
  ["COc1ccc(N[S+]([O-])c2ccc(-c3ccccc3)cc2)cc1 (stereo not given)", "> 100 µM"],
  ["COc1ccc(C(SCC(N)C(=O)O)(c2ccc(OC)cc2)c2ccc(OC)cc2)cc1 (stereo not given)", "11.6 µM"],
  ["CC[C@H](C)[C@H](NC(=O)[C@H](Cc1ccc(O)cc1)NCC(F)(F)F)C(=O)OC(C)(C)C", "10.5 µM"],
  ["NC(Cc1ccc(S(=O)(=O)O)cc1)C(=O)NC(CCCCNC(=O)NCCCCC(NC(=O)C(N)Cc1ccc(S(=O)(=O)O)cc1)C(=O)NC(Cc1ccc(S(=O)(=O)O)cc1)C(=O)O)C(=O)NC(Cc1ccc(S(=O)(=O)O)cc1)C(=O)O (stereo not given)", "> 100 µM"],
  ["CCCN(CCCc1ccccc1)CCc1ccc2[nH]c(=S)[nH]c2c1", "25.8 µM"],
  ["Sc1nnc(COc2ccc(Cl)cc2)[nH]1", "> 100 µM"],
  ["NC1=NC(Cn2nc(-c3ccccc3)c3ccccc3c2=O)=NNC(=O)N1", "> 100 µM"],
  ["CC1=NN(C(=O)c2ccccc2O)C(=O)/C1=C/c1cccc([N+](=O)[O-])c1", "4.05 µM"],
  ["NC(=O)CC(N)c1nnn[nH]1 (stereo not given)", "> 100 µM"]
]}
